# System: 323965-272-R-J2-PDC complex spheroid growth, % test/control
# assay.info: Anticancer human tumor 323965-272-R-J2-PDC patient-derived pancreatic carcinoma cell line growth inhibition [Asc]
# reported.conditions: curve of first compound; second compound 0.0316 µM
outcome.measure: IC50 (nM)
Provide the reading as a plain figure in nM.

Completed entries (count: 2):
COc1c(OCCCN2CCOCC2)ccc2c3n(c(=NC(=O)c4cnc(N)nc4)nc12)CCN3 + CNC(C)C(=O)NC1CN(S(=O)(=O)c2cccc(S(=O)(=O)N3CCC4CCC(C(=O)NC(c5ccccc5)c5ccccc5)N4C(=O)C(NC(=O)C(C)NC)C3)c2)CCC2CCC(C(=O)NC(c3ccccc3)c3ccccc3)N2C1=O = 92.6
O=C(c1ccc(F)c(F)c1Nc1ccc(I)cc1F)N1CC(O)([C@@H]2CCCCN2)C1 + Cc1c(S(C)(=O)=O)c(-c2cc(F)cc(N3CCN(c4ccc(NS(=O)(=O)c5ccc(NC(CCN6CCC(C(=O)OCCCP(=O)(O)O)CC6)CSc6ccccc6)c(S(=O)(=O)C(F)(F)F)c5)cc4)CC3)c2)c(-c2ccc(Cl)cc2)n1C(C)C = 139

Then there is this compound:
Problem: Bench note: what IC50 did COc1c(OCCCN2CCOCC2)ccc2c3n(c(=NC(=O)c4cnc(N)nc4)nc12)CCN3 + Cc1c(S(C)(=O)=O)c(-c2cc(F)cc(N3CCN(c4ccc(NS(=O)(=O)c5ccc(NC(CCN6CCC(C(=O)OCCCP(=O)(O)O)CC6)CSc6ccccc6)c(S(=O)(=O)C(F)(F)F)c5)cc4)CC3)c2)c(-c2ccc(Cl)cc2)n1C(C)C show?
Solution: 166

----------
# System: 323965-272-R-J2-PDC complex spheroid growth, % test/control
# assay.info: Anticancer human tumor 323965-272-R-J2-PDC cell line growth inhibition [Asc];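 note: compound exposure lasted 7 days starting three days after spheroid seeding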
# reported.conditions: compound alone; run of 11/15/2022
# Source text: Multicellular complex tumor spheroid response to apoptosis pathway targeting inhibitors Alrizomadlin, Pelcitoclax, and Dasminapant in combination with a variety of drugs and investigational agents in selected tumor cell lines […] Compounds. […] If the clinical Cmax for an agent had not been determined, the highest concentration tested was 10 microM. […]
pIC50: −log10 of the molar value.
outcome.measure: pIC50

Problem: Bench note: what pIC50 did CNC(C)C(=O)NC1CN(S(=O)(=O)c2cccc(S(=O)(=O)N3CCC4CCC(C(=O)NC(c5ccccc5)c5ccccc5)N4C(=O)C(NC(=O)C(C)NC)C3)c2)CCC2CCC(C(=O)NC(c3ccccc3)c3ccccc3)N2C1=O (stereo unspecified) show?
Solution: < 6.00

----------
# Test system: 323965-272-R-J2-PDC complex spheroid growth, % test/control
# assay.info: Anticancer human tumor 323965-272-R-J2-PDC cell line growth inhibition [Asc];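 note: compound exposure lasted 7 days starting three days after spheroid seeding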;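 for viability, T/C: 100% = DMSO vehicle control wells with viability set relative to vehicle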
# reported.conditions: second compound 3 µM; first compound 0.0316 µM; stronger effect = lower value
Please respond with 1 (yes) when measured viability, T/C is strictly beneath 80%, and with 0 (no) in all other cases.

Here are 3 molecules together with their reported answers.
C=C(F)C(=O)N1CCN(c2nc(OCC3CCCN3C)nc3c2CCN(c2cccc4cccc(Cl)c24)C3)CC1CC#N (stereo not given) + CCN1C(C(=O)NC23CCC(C(=O)O)(CC2)CC3)C(c2cccc(Cl)c2F)C2(C(=O)Nc3cc(Cl)ccc32)C12CCCCC2 = 1 (yes)
O=C(c1ccc(F)c(F)c1Nc1ccc(I)cc1F)N1CC(O)([C@@H]2CCCCN2)C1 + CCN1C(C(=O)NC23CCC(C(=O)O)(CC2)CC3)C(c2cccc(Cl)c2F)C2(C(=O)Nc3cc(Cl)ccc32)C12CCCCC2 = 1 (yes)
CCN1CCN(Cc2ccc(Nc3ncc(F)c(-c4cc(F)c5nc(C)n(C(C)C)c5c4)n3)nc2)CC1 + CCN1C(C(=O)NC23CCC(C(=O)O)(CC2)CC3)C(c2cccc(Cl)c2F)C2(C(=O)Nc3cc(Cl)ccc32)C12CCCCC2 = 0 (no)

Could you now consider this next molecule?
Problem: For Cn1ncnc1[C@H]1c2n[nH]c(=O)c3cc(F)cc(c23)N[C@@H]1c1ccc(F)cc1 + CCN1C(C(=O)NC23CCC(C(=O)O)(CC2)CC3)C(c2cccc(Cl)c2F)C2(C(=O)Nc3cc(Cl)ccc32)C12CCCCC2 , is the recorded viability, T/C below the cut-off of 80%?
Solution: 0 (no)

----------
viability, T/C reference
# Tested on: 323965-272-R-J2-PDC complex spheroid growth, % test/control
# assay.info: Anticancer human tumor 323965-272-R-J2-PDC cell line growth inhibition [Asc];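 note: compound exposure lasted 7 days starting three days after spheroid seeding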;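 for viability, T/C: 100% = DMSO vehicle control wells with viability set relative to vehicle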
# reported.conditions: second compound 0.316 µM; first compound 0.000316 µM; stronger effect = lower value
Provide the reading as a plain figure in %.

Cn1ncnc1[C@H]1c2n[nH]c(=O)c3cc(F)cc(c23)N[C@@H]1c1ccc(F)cc1 + Cc1c(S(C)(=O)=O)c(-c2cc(F)cc(N3CCN(c4ccc(NS(=O)(=O)c5ccc(NC(CCN6CCC(C(=O)OCCCP(=O)(O)O)CC6)CSc6ccccc6)c(S(=O)(=O)C(F)(F)F)c5)cc4)CC3)c2)c(-c2ccc(Cl)cc2)n1C(C)C = 94.8
NC1CCC(NC2CC2c2ccccc2)CC1 (centres undefined) + Cc1c(S(C)(=O)=O)c(-c2cc(F)cc(N3CCN(c4ccc(NS(=O)(=O)c5ccc(NC(CCN6CCC(C(=O)OCCCP(=O)(O)O)CC6)CSc6ccccc6)c(S(=O)(=O)C(F)(F)F)c5)cc4)CC3)c2)c(-c2ccc(Cl)cc2)n1C(C)C = 108
Cn1ncnc1[C@H]1c2n[nH]c(=O)c3cc(F)cc(c23)N[C@@H]1c1ccc(F)cc1 + CNC(C)C(=O)NC1CN(S(=O)(=O)c2cccc(S(=O)(=O)N3CCC4CCC(C(=O)NC(c5ccccc5)c5ccccc5)N4C(=O)C(NC(=O)C(C)NC)C3)c2)CCC2CCC(C(=O)NC(c3ccccc3)c3ccccc3)N2C1=O = 103

Then there is this compound:
Problem: Bench note: what viability, T/C did NC1CCC(NC2CC2c2ccccc2)CC1 (centres undefined) + CNC(C)C(=O)NC1CN(S(=O)(=O)c2cccc(S(=O)(=O)N3CCC4CCC(C(=O)NC(c5ccccc5)c5ccccc5)N4C(=O)C(NC(=O)C(C)NC)C3)c2)CCC2CCC(C(=O)NC(c3ccccc3)c3ccccc3)N2C1=O show?
Solution: 109

----------
# Test system: 323965-272-R-J2-PDC complex spheroid growth, % test/control
# assay.info: Anticancer human tumor 323965-272-R-J2-PDC cell line growth inhibition [Asc];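 note: compound exposure lasted 7 days starting three days after spheroid seeding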;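 for viability, T/C: 100% = DMSO vehicle control wells with viability set relative to vehicle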
# reported.conditions: second compound 1 µM; first compound 0.949 µM; stronger effect = lower value
outcome.measure: viability, T/C (%)
Provide the reading as a plain figure in %.

Cc1nc(N2CCC3(CC2)COC(C)C3N)c(CO)nc1Sc1ccnc(N)c1Cl (centres undefined) + CNC(C)C(=O)NC1CN(S(=O)(=O)c2cccc(S(=O)(=O)N3CCC4CCC(C(=O)NC(c5ccccc5)c5ccccc5)N4C(=O)C(NC(=O)C(C)NC)C3)c2)CCC2CCC(C(=O)NC(c3ccccc3)c3ccccc3)N2C1=O = 50.1
CCN1C(C(=O)NC23CCC(C(=O)O)(CC2)CC3)C(c2cccc(Cl)c2F)C2(C(=O)Nc3cc(Cl)ccc32)C12CCCCC2 (centres undefined) + Cc1c(S(C)(=O)=O)c(-c2cc(F)cc(N3CCN(c4ccc(NS(=O)(=O)c5ccc(NC(CCN6CCC(C(=O)OCCCP(=O)(O)O)CC6)CSc6ccccc6)c(S(=O)(=O)C(F)(F)F)c5)cc4)CC3)c2)c(-c2ccc(Cl)cc2)n1C(C)C = 81.8
Cc1nc(N2CCC3(CC2)COC(C)C3N)c(CO)nc1Sc1ccnc(N)c1Cl (centres undefined) + Cc1c(S(C)(=O)=O)c(-c2cc(F)cc(N3CCN(c4ccc(NS(=O)(=O)c5ccc(NC(CCN6CCC(C(=O)OCCCP(=O)(O)O)CC6)CSc6ccccc6)c(S(=O)(=O)C(F)(F)F)c5)cc4)CC3)c2)c(-c2ccc(Cl)cc2)n1C(C)C = 36.1

Problem: Bench note: what viability, T/C did CCN1C(C(=O)NC23CCC(C(=O)O)(CC2)CC3)C(c2cccc(Cl)c2F)C2(C(=O)Nc3cc(Cl)ccc32)C12CCCCC2 (centres undefined) + CNC(C)C(=O)NC1CN(S(=O)(=O)c2cccc(S(=O)(=O)N3CCC4CCC(C(=O)NC(c5ccccc5)c5ccccc5)N4C(=O)C(NC(=O)C(C)NC)C3)c2)CCC2CCC(C(=O)NC(c3ccccc3)c3ccccc3)N2C1=O show?
Solution: 89.5

----------
# Tested on: 323965-272-R-J2-PDC complex spheroid growth, % test/control
# assay.info: Anticancer human tumor 323965-272-R-J2-PDC cell line growth inhibition [Asc];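 note: compound exposure lasted 7 days starting three days after spheroid seeding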;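 for viability, T/C: 100% = DMSO vehicle control wells with viability set relative to vehicle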
# reported.conditions: second compound 0.00949 µM; first compound 0.00316 µM; stronger effect = lower value
viability, T/C reference
Provide the reading as a plain figure in %.

Completed entries (count: 5):
CNC(C)C(=O)NC1CN(S(=O)(=O)c2cccc(S(=O)(=O)N3CCC4CCC(C(=O)NC(c5ccccc5)c5ccccc5)N4C(=O)C(NC(=O)C(C)NC)C3)c2)CCC2CCC(C(=O)NC(c3ccccc3)c3ccccc3)N2C1=O (stereo unspecified) + CCN1C(C(=O)NC23CCC(C(=O)O)(CC2)CC3)C(c2cccc(Cl)c2F)C2(C(=O)Nc3cc(Cl)ccc32)C12CCCCC2 = 110
Cn1ncnc1[C@H]1c2n[nH]c(=O)c3cc(F)cc(c23)N[C@@H]1c1ccc(F)cc1 + CCN1C(C(=O)NC23CCC(C(=O)O)(CC2)CC3)C(c2cccc(Cl)c2F)C2(C(=O)Nc3cc(Cl)ccc32)C12CCCCC2 = 108
O=C(c1ccc(F)c(F)c1Nc1ccc(I)cc1F)N1CC(O)([C@@H]2CCCCN2)C1 + CCN1C(C(=O)NC23CCC(C(=O)O)(CC2)CC3)C(c2cccc(Cl)c2F)C2(C(=O)Nc3cc(Cl)ccc32)C12CCCCC2 = 110
CCN1CCN(Cc2ccc(Nc3ncc(F)c(-c4cc(F)c5nc(C)n(C(C)C)c5c4)n3)nc2)CC1 + CCN1C(C(=O)NC23CCC(C(=O)O)(CC2)CC3)C(c2cccc(Cl)c2F)C2(C(=O)Nc3cc(Cl)ccc32)C12CCCCC2 = 107
COc1c(OCCCN2CCOCC2)ccc2c3n(c(=NC(=O)c4cnc(N)nc4)nc12)CCN3 + CCN1C(C(=O)NC23CCC(C(=O)O)(CC2)CC3)C(c2cccc(Cl)c2F)C2(C(=O)Nc3cc(Cl)ccc32)C12CCCCC2 = 96

Then there is this molecule:
Problem: Bench note: what viability, T/C did NC1CCC(NC2CC2c2ccccc2)CC1 (stereo unspecified) + CCN1C(C(=O)NC23CCC(C(=O)O)(CC2)CC3)C(c2cccc(Cl)c2F)C2(C(=O)Nc3cc(Cl)ccc32)C12CCCCC2 show?
Solution: 94.8

Origin of values: PubChem BioAssay AID1963425
